- TESTED_TARGET: AMP-activated protein kinase, AMPK (Homo sapiens) (UniProt P54646+O43741+P54619+Q9UGJ0+Q9Y478+Q13131+Q9UGI9)
- ASSAY_SUMMARY: AMP-dependent Kinase enzyme assay. An in vitro enzyme assay that detects ADP turnover that is directly proportional to AMPK activity. This uses naive AMPK that is activated during the assay with MK-8722
- Type: functional
- Parameters: scale not given: direction of the effect not stated beside the values
- RUN_PARAMETERS: 30 µM
QUANTITY_NAME: Percent Effect (%)

>>> recorded_result("CN(Cc1ccsc1)C(=O)c1nc(N2CCCCC2)ncc1Cl")
0.035
>>> recorded_result("CN(C)S(=O)(=O)NCC1CCN(Cc2ccccc2F)CC1")
-2.6
>>> recorded_result("CN1CCCC(c2nccnc2-c2cccc(C(F)(F)F)c2)C1 (configuration not stated)")
26.4
>>> recorded_result("Cc1nc(C)c(C(=O)N2CCc3c(Cl)cccc32)o1")
1.75
>>> recorded_result("CN(C)C1CCN(c2cc(-c3ccccc3)nc3ccnn23)C1 (configuration not stated)")
-0.347
>>> recorded_result("O=C1NCCCCC1NC(=O)N1CCCc2cc(F)ccc21 (configuration not stated)")
6.88
>>> recorded_result("CC(C)c1ccc(/C=C/CC(=O)NC2CCN(C(N)=O)C2)cc1 (configuration not stated)")
1.32
>>> recorded_result("C=C(C)COc1cccc(CNCc2nc3ccccc3c(=O)[nH]2)c1")
1.56
>>> recorded_result("Cn1cnnc1C1CCCN(c2nc3ccccc3o2)C1 (configuration not stated)")
-1.42
>>> recorded_result("Cc1cc(N2CCCC2)nc(CNS(=O)(=O)Cc2ccccc2)n1")
5.01
>>> recorded_result("CCn1nc(C)cc1C(=O)N1C[C@@H](CN(C)C)[C@@H](CO)C1")
0.455
>>> recorded_result("Cc1ccc2nc(CNCCCOc3ccccc3)cc(O)c2c1")
2.49
>>> recorded_result("CC(=O)N[C@@H]1CN(C(=O)c2cccc(C)c2)C[C@H]1O")
8.23
>>> recorded_result("Cc1ccc2c(c1)cc(CN1CC[C@](C)(O)[C@H](C)C1)n2C")
9.89
>>> recorded_result("COCC[C@]1(O)CCN(CC(=O)NCc2ccccc2C)C[C@H]1C")
8.23
>>> recorded_result("CCC(C)C(=O)N(Cc1ccccn1)C1CC1 (configuration not stated)")
2.05
>>> recorded_result("O=C(CCn1ccnc1)N1CCCC(n2cncn2)C1 (configuration not stated)")
11.8

###

Each item that follows carries a reported Percent Effect.
- TESTED_TARGET: AMP-activated protein kinase, AMPK (Homo sapiens) (UniProt P54646+O43741+P54619+Q9UGJ0+Q9Y478+Q13131+Q9UGI9)
- ASSAY_SUMMARY: AMP-dependent Kinase enzyme assay. An in vitro enzyme assay that detects ADP turnover that is directly proportional to AMPK activity. This uses naive AMPK that is activated during the assay with MK-8722
- Type: functional
- Parameters: scale not given: direction of the effect not stated beside the values
- RUN_PARAMETERS: 30 µM
QUANTITY_NAME: Percent Effect (%)

>>> recorded_result("CSc1nccc(N2CCC(NCc3nc(C)cc(C)n3)CC2)n1")
7.66
>>> recorded_result("O=C1CC[C@@H](C(=O)N2CCC(Cn3cc(C4CCCCC4)nn3)CC2)N1")
4.87
>>> recorded_result("N#CCCN(C(=O)CCc1cscn1)c1ccc2c(c1)OCCO2")
-3.58
>>> recorded_result("N#Cc1c(N)nc2c(c1C1CCOC1)CCc1cc(O)ccc1-2 (configuration not stated)")
32
>>> recorded_result("CCc1cc(NCCCc2nc(C)no2)nc(-c2ccncc2)n1")
-1.39
>>> recorded_result("CCCOc1cc(CNC(=O)Nc2cccc(C(C)=O)c2)ccn1")
-3.21
>>> recorded_result("N#CC1COCCN1C(=O)c1ccc2[nH]ccc2c1 (configuration not stated)")
7.92
>>> recorded_result("Cc1cnn(C2CN(Cc3nc4cc(Cl)ccc4n3C)C2)c1")
-6.13
>>> recorded_result("Cc1cc(NC(C)c2csc(C)n2)n2nc(C)c(C)c2n1 (configuration not stated)")
10
>>> recorded_result("CCN(CC)CCN(CC(C)C)c1cc(C(F)(F)F)nc2ncnn12")
0.943
>>> recorded_result("Cc1cc(C)c2c(NCc3nncn3C3CCCCC3)ncnc2n1")
-0.11
>>> recorded_result("Cn1ncnc1NCc1ccccc1Cl")
1.77
